- TESTED ON: HIS-PDZ3 protein (PSD-95 PDZ3, residues 309-401, with tag …) (human, UniProt P78352 309-401)
- Sequence (P78352 other isoform, or with tags, fused parts or gaps limits assumed): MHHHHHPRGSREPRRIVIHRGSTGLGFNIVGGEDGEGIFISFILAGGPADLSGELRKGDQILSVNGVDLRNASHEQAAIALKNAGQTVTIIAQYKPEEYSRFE
- PROCEDURE TEXT: FP saturation binding
Ends that are not written are not given here. * marks the point of attachment. 5FAM = O=C1OC2(c3ccc(O)cc3Oc3cc(O)ccc32)c2ccc(C(=O)*)cc21
MEASURED QUANTITY: Kd (µM)
Give the quantity in µM, number only.

Please list Kd recorded for the binder 5FAM-KSGLDTKNYKQTSV (also: entry also covers Cy5-CRIPT: CSG linker, Cy5-maleimide on Cys, also called 5-FAM-CRIPT) [5-FAM/Cy5-CRIPT]
3.5
